Cited source: patent US20070004634A1

system: T1, His-tagged soluble recombinant human IGF-IR (srhIGF-1R-his) (human, UniProt P08069 31-935)
T1 construct: extracellular domain; Bought construct; not shown: His tag
measurement_protocol: ALPHAScreen competition against b-hIGF-1 on srhIGF-1R-his
endpoint_name: IC50 (nM)

Worked set:
- binder: "CWARPCGDAANFYDWFVQQAS (also called C1 (D112); D112) [C1]"
  measurement_units: "nM"
  IC50: 42
- binder: "GSLDESFYDWFERQLG [RP9]"
  measurement_units: "nM"
  IC50: 970

(I) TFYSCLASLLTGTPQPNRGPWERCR [RP6]
(II) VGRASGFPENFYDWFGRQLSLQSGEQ [H2C-A-H6]
Ask: From the items above, decide which of I and II has the lower IC50 reading. Selection: enter the item's label.
Reply: I
(I: 350 nM, II: 32000 nM)
